# target-entity: T1, human calcitonin receptor (human, UniProt P30988 25-474)
# T1 construct: whole, on cells; also called hCT-R; hCTR
# T1 sequence (looked up): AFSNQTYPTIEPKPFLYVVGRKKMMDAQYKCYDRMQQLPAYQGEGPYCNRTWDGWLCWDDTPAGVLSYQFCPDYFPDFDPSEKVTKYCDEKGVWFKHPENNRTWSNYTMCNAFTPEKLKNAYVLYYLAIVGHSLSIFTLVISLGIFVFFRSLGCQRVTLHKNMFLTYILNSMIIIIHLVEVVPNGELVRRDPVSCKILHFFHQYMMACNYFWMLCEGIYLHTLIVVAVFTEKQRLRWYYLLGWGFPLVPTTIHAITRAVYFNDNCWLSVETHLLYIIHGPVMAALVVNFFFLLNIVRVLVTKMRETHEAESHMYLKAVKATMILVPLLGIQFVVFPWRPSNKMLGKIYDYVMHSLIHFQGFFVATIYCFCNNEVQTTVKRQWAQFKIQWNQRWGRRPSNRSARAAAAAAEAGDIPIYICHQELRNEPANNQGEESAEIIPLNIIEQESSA
# experiment-summary: whole-cell competition vs 125I-human calcitonin (Assay VIIa)
Numbered stars: 1 amine (or outer) side, 2 acyl side, 3 side chain; on linkers, the order of the positions; unused ones are H or OH. Ends that are not written are not given here. * marks the point of attachment. C20 diacid = O=C(O)CCCCCCCCCCCCCCCCCCC(=O)*; C18 diacid = O=C(O)CCCCCCCCCCCCCCCCC(=O)*; C16 diacid = O=C(O)CCCCCCCCCCCCCCC(=O)*; γGlu = O=C(O)[C@H](CCC(=O)[*:2])N[*:1]; C14 diacid = O=C(O)CCCCCCCCCCCCC(=O)*; C12 diacid = O=C(O)CCCCCCCCCCC(=O)*; Palmitoyl = CCCCCCCCCCCCCCCC(=O)*; AEEA = NCCOCCOCC(=O)O
measurement-type: IC50 (nM)

>  <binder>
EASELSTAALGRLSAELHELATLPRTETGPESP-NH2 (also called Ex. #1) [mimylin]

>  <reported-value>
0.431

$$$$
>  <binder>
Palmitoyl-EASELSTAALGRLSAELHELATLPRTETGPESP-NH2 (also called Ex. #7) [[N-terminal(C16)]mimylin]

>  <reported-value>
0.834

$$$$
>  <binder>
ASEVSTAVLGRLSAELHELATLPRTETGSGSP-NH2 (backbone without side chain; also called Ex. #86bb; 86bb) [[des1, 5V, 9V, 30S, 31G]mimylin]

>  <reported-value>
0.52

$$$$
>  <binder>
{C14 diacid-γGlu-γGlu-AEEA-AEEA-AEEA-AEEA}-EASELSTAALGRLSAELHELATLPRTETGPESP-NH2 (also called Ex. #5) [[N-terminal(C14 diacid-2xgGlu-4xOEG)]mimylin]

>  <reported-value>
6.51

$$$$
>  <binder>
{C16 diacid}-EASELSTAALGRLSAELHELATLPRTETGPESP-NH2 (also called Ex. #3) [[N-terminal(C16 diacid)]mimylin]

>  <reported-value>
0.413

$$$$
>  <binder>
{C18 diacid-γGlu}-ASELTTAVLGRLSAELHELATLPRTETGSGTP-NH2 (also called Ex. #94) [[N-terminal(C18 diacid-gGlu), des1, 6T, 9V, 30S, 31G, 32T]mimylin]

>  <reported-value>
0.651

$$$$
>  <binder>
{C20 diacid}-EASELSTAALGRLSAELHELATLPRTETGSGSP-NH2 (also called Ex. #22) [[N-terminal(C20 diacid), 30S, 31G]mimylin]

>  <reported-value>
0.188

$$$$
>  <binder>
LSGLSTAVLGRLSQELHELQTYPRTETGSQTY-NH2 (backbone without side chain) [[des1, 2L, 4G, 9V, 15Q, 21Q, 23Y, 30S, 31Q, 32T, 33Y]mimylin]

>  <reported-value>
0.959

$$$$
>  <binder>
ASELTTAVLGRLSAELHELATLPRTETGTGTP-NH2 (backbone without side chain; also called Ex. #95bb; 95bb) [[des1, 6T, 9V, 30T, 31G, 32T]mimylin]

>  <reported-value>
15.3

$$$$
>  <binder>
{C18 diacid-γGlu}-ASELTTAVLGRLSAELHELATLPRTETGTGTP-NH2 (also called Ex. #95) [[N-terminal(C18 diacid-gGlu), des1, 6T, 9V, 30T, 31G, 32T]mimylin]

>  <reported-value>
1.7

$$$$
>  <binder>
{C20 diacid-γGlu}-ASELSTAALGRLSAELHELATYPRTETGSGSY-OH (also called Ex. #88) [[N-terminal(C20 diacid-gGlu), des1, 23Y, 30S, 31G, 33Y, C-terminal(-)]mimylin]

>  <reported-value>
24.2

$$$$
>  <binder>
{C20 diacid-γGlu}-ASGLSTATLGRLSQELHELQTYPRTETGSGTY-NH2 [[N-terminal(C20 diacid-gGlu), des1, 4G, 9T, 15Q, 21Q, 23Y, 30S, 31G, 32T, 33Y]mimylin]

>  <reported-value>
0.312

$$$$
>  <binder>
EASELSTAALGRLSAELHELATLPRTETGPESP-OH (also called Ex. #135) [[C-terminal(-)]mimylin]

>  <reported-value>
630

$$$$
>  <binder>
{C12 diacid}-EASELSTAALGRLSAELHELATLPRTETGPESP-NH2 (also called Ex. #6) [[N-terminal(C12 diacid)]mimylin]

>  <reported-value>
5.68

$$$$
>  <binder>
ASELTTAVLGRLEAELHELTTLPRTETGTGTP-NH2 (backbone without side chain) [[des1, 6T, 9V, 14E, 21T, 30T, 31G, 32T]mimylin]

>  <reported-value>
62.9

$$$$
>  <binder>
{C20 diacid-γGlu}-ASELSTAALGHLSAELHELATLPRTETGSGSP-NH2 (also called Ex. #72) [[N-terminal(C20 diacid-gGlu), des1, 12H, 30S, 31G]mimylin]

>  <reported-value>
0.438

$$$$
>  <binder>
{C18 diacid-γGlu}-ASEVSTAVLGRLSAELHELATLPRTETGSGSP-NH2 (also called Ex. #86) [[N-terminal(C18 diacid-gGlu), des1, 5V, 9V, 30S, 31G]mimylin]

>  <reported-value>
0.943

$$$$
>  <binder>
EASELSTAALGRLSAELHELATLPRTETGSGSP-NH2 (backbone without side chain; also called Ex. #22bb; 22bb) [[30S, 31G]mimylin]

>  <reported-value>
0.481

$$$$
>  <binder>
{C18 diacid}-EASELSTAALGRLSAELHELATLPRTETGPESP-OH [[N-terminal(C18 diacid), C-terminal(-)]mimylin]

>  <reported-value>
42.4

$$$$
>  <binder>
{C18 diacid}-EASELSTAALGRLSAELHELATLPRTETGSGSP-NH2 (also called Ex. #21) [[N-terminal(C18 diacid), 30S, 31G]mimylin]

>  <reported-value>
0.315

$$$$
>  <binder>
{C20 diacid-γGlu}-ASGLSTAALGRLSAELHELATYPRTETGSGSP-NH2 (also called Ex. #79) [[N-terminal(C20 diacid-gGlu), des1, 4G, 23Y, 30S, 31G]mimylin]

>  <reported-value>
0.385

$$$$
>  <binder>
{C14 diacid-γGlu}-ASELSTAALGRLSAELHELATLPRTETGPESP-NH2 (also called Ex. #19) [[N-terminal(C14 diacid-gGlu), des1]mimylin]

>  <reported-value>
0.515

$$$$
>  <binder>
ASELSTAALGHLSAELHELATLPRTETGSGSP-NH2 (backbone without side chain; also called Ex. #72bb; 72bb) [[des1, 12H, 30S, 31G]mimylin]

>  <reported-value>
4.53

$$$$
